Source of measurements: patent US20240132603A1

# Test system: T1, human CCR8 (human, UniProt P51685 1-355)
# T1 construct: whole, on cells; construct used for the overexpressing cell lines is not described; also called hCCR8
# T1 sequence (P51685 whole entry): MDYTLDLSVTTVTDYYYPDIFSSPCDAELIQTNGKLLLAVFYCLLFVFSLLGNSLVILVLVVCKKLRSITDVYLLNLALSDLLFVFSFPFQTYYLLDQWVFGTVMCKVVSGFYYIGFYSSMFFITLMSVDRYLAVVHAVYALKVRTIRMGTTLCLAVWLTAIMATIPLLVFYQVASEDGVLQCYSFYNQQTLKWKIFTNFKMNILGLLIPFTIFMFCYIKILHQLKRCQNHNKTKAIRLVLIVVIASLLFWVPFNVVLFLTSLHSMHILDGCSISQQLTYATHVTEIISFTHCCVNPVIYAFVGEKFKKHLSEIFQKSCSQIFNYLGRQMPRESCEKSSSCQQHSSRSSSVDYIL
# Experiment notes: FACS, CHO-K1-hCCR8 cells
Labelling: EC50 reported below 1 nM becomes 1.0; at or above becomes 0.0.

{"columns": ["Binder", "Label"],
 "data": [
  ["PR004346 (antibody, human IgG1, kappa, V domains shown) VH: EVQLVESGGGLVQPKGSLKLSCAASGFTFNTYAMNWVRQAPGKGLEWVARIRSKSNNYATYYADSVKDRFTISRDDSQSMLYLQMNNLKTEDTAMYYCVRGKENGNYYAMDFWGQGTSVTVSA VL: DIVMTQSPLSLPVTLGQPASISCRSSKSLLHSNGNTYLYWFQQRPGQSPRLLIYRMSNLASGVPDRFSGSGSGTDFTLKISRVEAEDVGVYYCMQHLEYPFTFGQGTKLEIKR", 1.0],
  ["PR004331 (antibody, human IgG1, kappa, V domains shown, heavy-chain semi-humanized variant of PR004128, IgG1 with DE mutation) VH: EVQLVESGGGLVKPGGSLRLSCAASGFTFNTNAMNWVRQAPGKGLEWVGRIRSKSNNYATYYADSVKDRFTISRDDSKSTLYLQMNSLKTEDTAVYYCVRGKENGNYYAMDFWGQGTTVTVSS VL: DIVMTQAAPSVPVTPGESVSISCRSSKSLLHSNGKIYLYWFLQRPGQSPQLLIYRMSNLASGVPDRFSGSGSGTAFTLRISRVEAEDVGVYYCMQHLEYPLTFGAGTKLEIKR", 0.0],
  ["PR004340 (antibody, human IgG1, kappa, V domains shown, light-chain semi-humanized variant of PR004128, IgG1 with DE mutation) VH: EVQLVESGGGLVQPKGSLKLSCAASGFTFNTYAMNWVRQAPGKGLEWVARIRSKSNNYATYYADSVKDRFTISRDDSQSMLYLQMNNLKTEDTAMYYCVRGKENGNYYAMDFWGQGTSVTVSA VL: DIVMTQSPLSLPVTPGEPASISCRSSKSLLHSNGNTYLYWFLQKPGQSPQLLIYRMSNLASGVPDRFSGSGSGTDFTLKISRVEAEDVGVYYCMQHLEYPLTFGQGTKLEIKR", 0.0]
]}

Consider now this further binder.
query: Field: below-cutoff. Rule: recorded EC50 strictly less than 1 nM. Subject: PR004343 (antibody, human IgG1, kappa, V domains shown, light-chain semi-humanized variant of PR004128, IgG1 with DE mutation) VH: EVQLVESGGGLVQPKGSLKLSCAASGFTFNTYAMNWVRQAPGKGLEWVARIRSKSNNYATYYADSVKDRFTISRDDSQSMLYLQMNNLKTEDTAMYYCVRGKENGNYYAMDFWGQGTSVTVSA VL: DIVMTQSPLSLPVTLGQPASISCRSSKSLLHSNGKIYLYWFQQRPGQSPRLLIYRMSNLASGVPDRFSGSGSGTDFTLKISRVEAEDVGVYYCMQHLEYPLTFGQGTKLEIKR
result: 0.0
